- target: T1, HLA-A*03:01 (human)
- T1 construct: MHC class I monomer first loaded with a UV-sensitive peptide that is cleaved by UV irradiation and exchanged for the test peptide; captured on streptavidin plates; also called peptide-receptive MHC molecules
- assay: UV-ligand exchange, anti-b2m ELISA; peptide exchange yield grade (>10% +, >20% ++, >50% +++, >75% ++++)
recorded.metric: peptide exchange yield

Q: Recorded peptide exchange yield of RLVELAGQSLLK , please.
A: > 75%

Q: Recorded peptide exchange yield of MKTLPAMLGTGK , please.
A: 20 to 50%

Q: Recorded peptide exchange yield of VSLGTPIMK , please.
A: 50 to 75%

Q: Recorded peptide exchange yield of KLYPTHACR , please.
A: > 75%

Q: Recorded peptide exchange yield of RLYEMILQR , please.
A: > 75%

Q: Recorded peptide exchange yield of RLLQHTPSAR , please.
A: > 75%

Q: Recorded peptide exchange yield of KVMPKQTWK , please.
A: 50 to 75%

Q: Recorded peptide exchange yield of RLKMAQESVSK , please.
A: > 75%

Q: Recorded peptide exchange yield of QICLPAIYK , please.
A: > 75%

Q: Recorded peptide exchange yield of KTCQVSGLLY , please.
A: > 75%

Q: Recorded peptide exchange yield of RLAQYTIER , please.
A: > 75%

Q: Recorded peptide exchange yield of QLGYQAAVLK , please.
A: 50 to 75%

Q: Recorded peptide exchange yield of KLQNLPTLLY , please.
A: 50 to 75%

Q: Recorded peptide exchange yield of RVSGSGGGGAGK , please.
A: 50 to 75%

Q: Recorded peptide exchange yield of LLRSGLTLR , please.
A: 20 to 50%

Q: Recorded peptide exchange yield of SIFGLAPGK , please.
A: > 75%
